Where do these numbers come from? They come from patent US12358886B2.

Target: Polθ protein (amino acids 2-2590) (Homo sapiens, UniProt O75417)
Sequence (O75417 2-2590): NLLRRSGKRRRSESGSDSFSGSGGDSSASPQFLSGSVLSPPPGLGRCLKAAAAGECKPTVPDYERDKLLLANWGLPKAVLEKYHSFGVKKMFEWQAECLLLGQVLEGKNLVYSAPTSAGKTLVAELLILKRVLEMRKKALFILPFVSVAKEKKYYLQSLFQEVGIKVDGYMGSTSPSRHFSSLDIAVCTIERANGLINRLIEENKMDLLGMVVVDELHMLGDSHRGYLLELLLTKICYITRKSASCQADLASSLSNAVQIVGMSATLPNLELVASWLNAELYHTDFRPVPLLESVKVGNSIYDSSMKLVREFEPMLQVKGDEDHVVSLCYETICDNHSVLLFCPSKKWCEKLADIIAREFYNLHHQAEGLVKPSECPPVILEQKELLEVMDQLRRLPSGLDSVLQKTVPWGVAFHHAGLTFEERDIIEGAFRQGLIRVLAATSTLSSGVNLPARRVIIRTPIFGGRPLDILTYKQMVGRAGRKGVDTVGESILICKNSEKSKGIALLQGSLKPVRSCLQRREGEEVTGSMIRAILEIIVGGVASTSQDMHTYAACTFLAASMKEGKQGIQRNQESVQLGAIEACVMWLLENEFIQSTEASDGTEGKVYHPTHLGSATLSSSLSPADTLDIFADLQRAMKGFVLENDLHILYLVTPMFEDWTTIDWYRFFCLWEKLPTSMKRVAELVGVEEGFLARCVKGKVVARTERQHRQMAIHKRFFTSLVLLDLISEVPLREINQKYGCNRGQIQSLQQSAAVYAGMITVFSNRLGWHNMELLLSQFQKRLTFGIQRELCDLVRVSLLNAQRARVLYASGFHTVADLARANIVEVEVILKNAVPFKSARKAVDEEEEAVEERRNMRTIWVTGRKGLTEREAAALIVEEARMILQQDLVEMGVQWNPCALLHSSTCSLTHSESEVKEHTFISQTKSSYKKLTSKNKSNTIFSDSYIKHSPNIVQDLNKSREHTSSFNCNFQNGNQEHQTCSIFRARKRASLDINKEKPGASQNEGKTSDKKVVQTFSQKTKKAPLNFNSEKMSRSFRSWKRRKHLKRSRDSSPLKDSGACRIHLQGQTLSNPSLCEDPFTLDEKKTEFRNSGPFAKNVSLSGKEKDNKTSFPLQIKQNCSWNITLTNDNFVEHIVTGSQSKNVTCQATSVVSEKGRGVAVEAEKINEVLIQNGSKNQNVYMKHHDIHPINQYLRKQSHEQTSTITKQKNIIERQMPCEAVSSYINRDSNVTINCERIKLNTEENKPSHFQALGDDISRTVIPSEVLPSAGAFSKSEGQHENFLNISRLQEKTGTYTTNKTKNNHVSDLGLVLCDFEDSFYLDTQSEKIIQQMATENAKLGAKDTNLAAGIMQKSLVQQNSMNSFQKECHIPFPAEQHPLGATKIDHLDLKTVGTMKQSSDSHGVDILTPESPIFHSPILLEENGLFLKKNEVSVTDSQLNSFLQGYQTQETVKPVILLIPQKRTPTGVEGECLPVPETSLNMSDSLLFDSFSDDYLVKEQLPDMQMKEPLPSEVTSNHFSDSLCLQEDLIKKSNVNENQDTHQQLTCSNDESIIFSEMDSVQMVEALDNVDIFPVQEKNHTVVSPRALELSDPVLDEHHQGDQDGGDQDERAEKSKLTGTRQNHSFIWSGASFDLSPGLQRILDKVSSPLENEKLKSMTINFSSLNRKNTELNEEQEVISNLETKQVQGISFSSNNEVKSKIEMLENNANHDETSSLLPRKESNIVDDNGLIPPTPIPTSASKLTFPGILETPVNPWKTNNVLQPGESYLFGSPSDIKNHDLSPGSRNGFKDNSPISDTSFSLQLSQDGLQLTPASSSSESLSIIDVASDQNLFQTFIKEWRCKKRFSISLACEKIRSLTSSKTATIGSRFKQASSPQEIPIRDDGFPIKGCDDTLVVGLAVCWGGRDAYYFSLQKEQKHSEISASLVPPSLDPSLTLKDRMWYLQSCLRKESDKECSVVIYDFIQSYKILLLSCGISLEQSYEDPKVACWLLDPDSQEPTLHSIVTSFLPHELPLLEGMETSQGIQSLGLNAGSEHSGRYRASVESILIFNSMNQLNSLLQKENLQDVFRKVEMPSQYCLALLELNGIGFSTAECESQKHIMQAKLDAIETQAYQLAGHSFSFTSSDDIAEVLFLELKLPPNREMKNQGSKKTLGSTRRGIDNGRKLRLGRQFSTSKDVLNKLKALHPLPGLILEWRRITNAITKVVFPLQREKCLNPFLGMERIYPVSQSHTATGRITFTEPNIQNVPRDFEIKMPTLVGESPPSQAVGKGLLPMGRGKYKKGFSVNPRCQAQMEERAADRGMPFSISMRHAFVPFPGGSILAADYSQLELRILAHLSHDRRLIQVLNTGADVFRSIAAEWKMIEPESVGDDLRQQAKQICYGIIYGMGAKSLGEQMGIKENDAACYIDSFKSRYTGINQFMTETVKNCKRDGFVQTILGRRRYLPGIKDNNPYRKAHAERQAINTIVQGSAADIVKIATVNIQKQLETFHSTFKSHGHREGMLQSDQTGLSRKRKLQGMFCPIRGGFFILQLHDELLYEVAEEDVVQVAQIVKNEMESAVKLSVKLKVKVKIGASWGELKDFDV
Experiment: Polθ full length enzyme potency assay (PicoGreen)
Conditions: read-out: Polθ IC50; full length N-His, C-term FLAG tagged Polθ, PicoGreen fluorescence, 12 point concentration response
Exercise: state measured pIC50 for each of the compounds provided.
Bear in mind: pIC50 is minus log10 of a mol/L concentration; give just that figure.

Record Cc1cc(C(F)(F)F)cc(N2C(=O)N(CC3CN(C)C(=O)O3)C[C@H]2C(=O)N(C)c2ccc(F)c(Cl)c2F)n1 (single isomer, unassigned; isomer 1) , field pIC50: 7.82

Record "CCN(C(=O)[C@@H]1C[C@H](O)C(=O)N1c1cc(C(F)(F)F)cc(C)n1)c1ccc(F)c(Cl)c1" , field pIC50: 7.02

Record "Cc1cc(C(F)(F)F)c(C#N)c(N2C[C@@H](O)C[C@H]2C(=O)N(C)c2ccc(F)c(Cl)c2)n1" , field pIC50: 7.80

Record "CCN(C(=O)[C@@H]1COC(=O)N1c1cc(C(F)(F)F)cc(C)n1)c1ccc(F)c(Cl)c1" , field pIC50: 7.27

Record "Cc1cccc(N(C)C(=O)[C@@H]2COC(=O)N2c2cc(C(F)(F)F)cc(C)n2)c1" , field pIC50: 8.15

Record "CCN(C(=O)[C@@H]1C[C@H](O)CN1c1nc(C)cc(C(F)(F)F)c1C#N)c1cccc(C)c1" , field pIC50: 7.57

Record "Cc1cc(C(F)(F)F)cc(N2C(=O)OC[C@H]2C(=O)N(C)c2cccc(Cl)c2)n1" , field pIC50: 7.82

###

Molecular target: Polθ protein (amino acids 2-2590) (Homo sapiens, UniProt O75417)
Assay: Polθ full length enzyme potency assay (PicoGreen)
Details: Polθ IC50 (nM), full length N-His, C-term FLAG tagged Polθ, PicoGreen fluorescence, 12 point concentration response
measurement.label: IC50 (nM)
Your answer is read as nM, so omit the unit and give the number.

Record "Cc1cc(C(F)(F)F)cc(N2C(=O)OC[C@H]2C(=O)N(C)c2ccc(F)c(Cl)c2)n1" , field IC50: 16

Record "Cc1cc(C)c(C#N)c(N2C[C@@H](O)C[C@H]2C(=O)N(C)c2ccc(F)c(F)c2)n1" , field IC50: 288

Record "Cc1cc(C(F)(F)F)cc(N2C(=O)[C@@H](O)[C@@H](O)[C@H]2C(=O)N(C)c2cc(F)cc(Cl)c2)n1" , field IC50: 31

Record "Cc1cc(C(F)(F)F)c(C#N)c(N2C[C@@H](O)C[C@H]2C(=O)N(C)c2ccccc2)n1" , field IC50: 180

###

Molecular target: Polθ protein (amino acids 2-2590) (Homo sapiens)
Experiment: Polθ full length enzyme potency assay (PicoGreen)
Conditions: Polθ IC50 (nM), full length N-His, C-term FLAG tagged Polθ, PicoGreen fluorescence, 12 point concentration response
Sorting guide: entries reporting IC50 beneath 70 nM go in the True pile, the rest go in the False pile.

Query: Is IC50 of Cc1cc(C(F)(F)F)cc(N2C(=O)N(CC(O)CN3CCOCC3)C[C@H]2C(=O)N(C)c2ccc(F)c(Cl)c2F)n1 (stereo partly shown) [Example 217] strictly below 70 nM?
Result: True

Query: Is IC50 of COc1cc(N(C)C(=O)[C@@H]2COC(=O)N2c2cc(C(F)(F)F)cc(C)n2)ccc1Cl [Example 91] strictly below 70 nM?
Result: False

Query: Is IC50 of CCN(C(=O)[C@@H]1C[C@H](N2CCOC(CO)C2)CN1c1nc(C)cc(C(F)(F)F)c1C#N)c1cccc(Cl)c1 (stereo partly shown) [Example 147] strictly below 70 nM?
Result: True

Query: Is IC50 of Cc1cc(C(F)(F)F)c(C#N)c(N2C[C@@H](N3CCOC(CO)C3)C[C@H]2C(=O)N(C)c2ccc(F)c(Cl)c2)n1 (stereo partly shown) [Example 151] strictly below 70 nM?
Result: True

Query: Is IC50 of CCN(C(=O)[C@H]1C[C@@H](N2CCNCC2)CN1c1nc(C)cc(C)c1C#N)c1cccc(C)c1 (stereo in doubt) [Example 50] strictly below 70 nM?
Result: False

Query: Is IC50 of Cc1cc(C(F)(F)F)cc(N2C(=O)N(CCN3CCCC3CO)C[C@H]2C(=O)N(C)c2ccc(F)c(Cl)c2)n1 (single isomer, unassigned; isomer 1) [Example 198] strictly below 70 nM?
Result: True
